Tested on: MS2 coat protein
Protocol Notes: apparent KD of MS2 coat protein; higher = weaker reporter binding
Study Conditions: Eterna round: R107; input ligand: arginine 13.2 mM
Please go through the items and note down their apparent KD of MS2 coat protein.

Worked set:
>>> meas_value("AACAUGAGGAUCACCCAUGUCCUCGUGAUUCGAGGACCGGUACGGCCGCCACUCGGUCCUCGCGAGGUGGAGUCAAAGACUCCAA [Omei Trp A SS A v3]")
"72.3 nM"
>>> meas_value("GGACUAACCAGAAGGAGCGGCGCGCAGAAACUGCAAAAUCCUCCGCACGAGGAUCACCCGUGUCAGGUAGGUCGCUGGUUAGUCG [ArgBX 28]")
"18 nM"
>>> meas_value("CUGUACAUCUCGGCCGCCACUGCAACAUGUAGAGAUGUAUAUGUACAUGAGGAUCACCCAUGUGGCAGGACCGGGAGGUGUGCAG [SSTryp B #27]")
"167 nM"
>>> meas_value("ACACAUGAGGAUCACCCAUGUCCAAUAGAUACCAGUGAUACAGUGCACCCUUGGCAGCUGUUACUGAGUAAUGGUUCCCUCGGAA [Same State Theophylline A GF2]")
"26.8 nM"
>>> meas_value("UUAAUCAUAUUAGAAAACUAAUAUGCAGAAGGAGCGUGAUAAAACACAGGUAGGUCGCUGAAGGGAACAUGAGGAUCACCCAUGU [AstrosSSArgA#8]")
"26.5 nM"

Go through the items and report each one's apparent KD of MS2 coat protein.
1. CUAUAUAUAAGAAGGAGCGUCGAAAAUGGGUAAACAUGAGGAUCACCCAUGUAAAGGGAACGACAGGUAGGUCGCUUAUAUAUAG [AstromonsSSArgB#5]
2. AUUAAUAGUUGUGAUACCAGACGAACAUGAGGAUCACCCAUGUAACUUUUAGGUGUUGUAGUCCCUUGGCAGCACUAUGUAGUUA [JR_SSTheophyB_Sub013]
3. GCUAGGUCUACGGCCGCCACUAGACAUGGGUAAGACAUGAGGAUCACCCAUGUACUACGAGUGCAUAGGACCGGGUAGACCUAGC [SSTB NP+V+V2 #19 +-Same Structure]
4. ACUCGGUGUUUGUUGCUCCGAGUUUAUGAUACCAGUUAGUUUUAUGGCCCUUGGCAGCAUAGGACAUGAGGAUCACCCAUGUGUU [#03 SameState-TheophyllineA]

Response:
1. 151 nM
2. 31.1 nM
3. 111 nM
4. 26.2 nM

List reported apparent KD of MS2 coat protein for each of these sequences:
1. UGGCGAGAAGGAAGGAGCGUCAGCUGAGUUACAUGAGGAUCACCCAUGUUGCACAUAGUGUGACAGGUAGGUCGCCUUCUGCCCU [SS-ArgB19]
2. GUUUACAUGAGGAUCACCCAUGUCGCCGGCCGAGGACCGGUACGGCCGCCACUCGUCCUAAUGGCACUUGACUUCCCUAUUAAGU [theeternabot_sameState_MS2_Trp_A_33]
3. UGACAUUGCUCAGAUACCAGACAUGAGGAUCACCCAUGUACCAAGGUACCCGAAAGGAAUGUCCCUUGGCAGCUGAGCAAUGUCU [TheoBX 3 #MS2Left #Theo2 #StaticStem]
4. AUUAUCAUGGUCAUAUAUAUAUCGUCAGAUACCAGACUAGAUAUAGUCCCUUGGCAGCUGUUACAUGAGGAUCACCCAUGUUAUA [JR_ExcTheophyA_Sub015]
5. CUUACGGGAAACCGACCCAAACAACGGGAAGGAGCGCCAAACAAGGCAGGUAGGUCGCCCACAUGAGGAUCACCCAUGUGUUGGG [Exclusion Arginine A GF 26]
6. GGUGAUCCGUAUCACCGGAUCACCGGUGAUACCAGCAUCGAAAGAUGCCCUUGGCAGCACCAACAUGAGGAUCACCCAUGUAAUA [(M)'-(T)'-(M)''-(T1)-(T2)-(M1)-(M2)_Design6b]
7. UAUAUAUAUCACUAACUGUUCUUGAGGUCUCGAGGACCGGUACGGCCGCCACUCGUGCCGCCUCACAUGAGGAUCACCCAUGUCC [XTryp A #2]

Response:
1: 38 nM; 2: 20.4 nM; 3: 11.7 nM; 4: 43.5 nM; 5: 42.6 nM; 6: 69.6 nM; 7: 55.3 nM
